# Experimental System: Low molecular weight phosphotyrosine protein phosphatase (Homo sapiens)
# Measurement Description: Inhibition of human recombinant LMW-PTP IF2 expressed in Escherichia coli TB1 using p-nitrophenylphosphate as substrate
Measured Attribute: IC50 (µM)

Cpd Smiles	Observed Measurement
O=C(O)c1ccc(CN2C(=O)/C(=C/c3ccc(OCc4ccccc4)c(F)c3)S/C2=N\c2ccccc2)cc1	15.5
COc1cc(/C=C2\S/C(=N\c3ccccc3)N(Cc3ccc(C(=O)O)cc3)C2=O)ccc1OCCc1ccccc1	19.7

a: O=C(O)c1ccc(CN2C(=O)/C(=C/c3ccc(OCCc4ccccc4)cc3)S/C2=N\c2ccccc2)cc1
b: O=C(O)c1ccc(CN2C(=O)/C(=C/c3cccc(OCCc4ccccc4)c3)S/C2=N\c2ccccc2)cc1
Between a and b , which one has the lower reported IC50 value? Could you answer with the label of the item you picked?
a

---

# Experimental System: Low molecular weight phosphotyrosine protein phosphatase (Homo sapiens)
# Sequence (P24666 whole entry): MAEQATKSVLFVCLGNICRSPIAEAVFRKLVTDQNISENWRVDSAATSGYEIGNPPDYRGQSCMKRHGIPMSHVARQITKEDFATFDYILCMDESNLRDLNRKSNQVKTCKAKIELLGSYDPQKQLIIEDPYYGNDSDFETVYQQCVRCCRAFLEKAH
# Measurement Description: Inhibition of human recombinant LMW-PTP IF2 expressed in Escherichia coli TB1 using p-nitrophenylphosphate as substrate
pIC50: −log10 of the molar value.
Listing of recorded pIC50 by entry.

# example entries with known answers
Cpd Smiles	pIC50
COc1cc(/C=C2\SC(=O)N(Cc3ccc(C(=O)O)cc3)C2=O)ccc1OCc1ccccc1	< 4.30
COc1cc(/C=C2\SC(=O)N(Cc3ccc(C(=O)O)cc3)C2=O)ccc1OCCc1ccccc1	< 4.30
COc1ccc(/C=C2\S/C(=N\c3ccccc3)N(Cc3ccc(C(=O)O)cc3)C2=O)cc1OCCc1ccccc1	< 4.30

Next compound, pIC50 to be filled in.
Quick check: pIC50 on Low molecular weight phosphotyrosine protein phosphatase (Homo sapiens), item `COc1ccc(/C=C2\S/C(=N\c3ccccc3)N(Cc3ccc(C(=O)O)cc3)C2=O)cc1OCc1ccccc1` ?
< 4.30

Each recorded value in this set is attributed to ChEMBL document CHEMBL3098122.
